Tested on: SW684
Assay: relative viability vs DMSO control (72 h) (fraction); higher = more viable cells
Conditions: 0.00017 µM
Let's look at some compounds and their measured relative viability.
quantity: relative viability

> print(dat)
                        structure.as.smiles            quantity  meas.value
1  Cn1cc(C2=C(c3cn(C4CCN(Cc5ccccn5)CC4)c4ccccc34)C(=O)NC2=O)c2ccccc21  relative viability        1.17
2  O=C(Nc1ccc(OC(F)(F)Cl)cc1)c1cnc(N2CC[C@@H](O)C2)c(-c2cc[nH]n2)c1  relative viability        1.09
3  CCC(=O)N1CC[C@H](Nc2ncnc3c2CN(c2cnc(OC)c(C(F)(F)F)c2)CC3)C1  relative viability        1.09
4  CC(C)(C)c1nc(-c2cccc(NS(=O)(=O)c3c(F)cccc3F)c2F)c(-c2ccnc(N)n2)s1  relative viability        1.13

###

Tested on: G401
Assay: relative viability vs DMSO control (72 h) (fraction); higher = more viable cells
Conditions: 0.04115 µM
Let's look at some compounds and their measured relative viability.
quantity: relative viability

> print(dat)
                        structure.as.smiles  meas.value
1  Cn1ncnc1[C@H]1c2n[nH]c(=O)c3cc(F)cc(c23)N[C@@H]1c1ccc(F)cc1       0.813
2  Cc1cc2cc(Oc3ccnc(Nc4cccc(CS(=O)(=O)NCCN(C)C)c4)n3)ccc2[nH]1       0.993
3  CC(C)(O)CNc1nc(Nc2ccnc(C(F)(F)F)c2)nc(-c2cccc(C(F)(F)F)n2)n1        1.01
4  COc1cc(Nc2ncc(F)c(Nc3ccc4c(n3)N(COP(=O)(O)O)C(=O)C(C)(C)O4)n2)cc(OC)c1OC        1.05
5   O=c1sn(-c2cccc3ccccc23)c(=O)n1Cc1ccccc1        1.07
6  CCN(CC)CCNC(=O)c1c(C)[nH]c(/C=C2\C(=O)Nc3ccc(F)cc32)c1C       0.996
7  C[C@H](Nc1ncnc2nc[nH]c12)c1cc2cccc(Cl)c2c(=O)n1-c1ccccc1       0.983
8  C[C@]12O[C@H](C[C@]1(O)CO)n1c3ccccc3c3c4c(c5c6ccccc6n2c5c31)CNC4=O       0.996

###

System: SK-LMS-1
Test: relative viability vs DMSO control (72 h) (fraction); higher = more viable cells
Settings: 0.3704 µM
Decide using relative viability alone. Strictly below 0.8: YES. Equal to or above 0.8: NO.

> print(dat)
                         structure.as.smiles  assay.target  answer.label
 1  O=C(Nc1ccc(OC(F)(F)Cl)cc1)c1cnc(N2CC[C@@H](O)C2)c(-c2cc[nH]n2)c1      SK-LMS-1            NO
 2  C[C@]12O[C@H](C[C@]1(O)CO)n1c3ccccc3c3c4c(c5c6ccccc6n2c5c31)CNC4=O      SK-LMS-1           YES
 3  CCN1C(=O)N(c2c(F)c(OC)cc(OC)c2F)Cc2cnc3[nH]c(CN4CCOCC4)cc3c21      SK-LMS-1            NO
 4    Clc1ccc(Nc2nnc(Cc3ccncc3)c3ccccc23)cc1      SK-LMS-1            NO
 5  CN1CC[C@@H](NC(=O)Nc2ccc(C#N)cc2)C[C@@H]1c1nc2ccccc2[nH]1      SK-LMS-1            NO
 6   O=c1sn(-c2cccc3ccccc23)c(=O)n1Cc1ccccc1      SK-LMS-1            NO
 7          O=S(=O)(c1cccc2cnccc12)N1CCCNCC1      SK-LMS-1            NO
 8  COc1cc(OC)c(/C=C/S(=O)(=O)Cc2ccc(OC)c(NCC(=O)O)c2)c(OC)c1      SK-LMS-1           YES
 9  CC(C)Oc1ccc(-c2nn([C@@H](C)c3oc4ccc(F)cc4c(=O)c3-c3cccc(F)c3)c3ncnc(N)c23)cc1F      SK-LMS-1            NO
10  CC(C)(O)CNc1nc(Nc2ccnc(C(F)(F)F)c2)nc(-c2cccc(C(F)(F)F)n2)n1      SK-LMS-1            NO
11  CC(C)(C)c1nc(-c2cccc(NS(=O)(=O)c3c(F)cccc3F)c2F)c(-c2ccnc(N)n2)s1      SK-LMS-1           YES
12  Cc1cc2c(F)c(Oc3ncnn4cc(OC[C@@H](C)O)c(C)c34)ccc2[nH]1      SK-LMS-1            NO

The origin of these recorded values is the supplement of paper PMC10883282.
